- Tested on: CTNNB1
- assay_info: In vitro DMD assay: mRNA silencing enhancement by peptide conjugates after siRNA-IV treatment
- Assay type: cell-based
- condition_description: Targeted peptide dose 40 nM; primary mouse hepatocytes; siRNA-IV 125 nM baseline
Where no end group is shown, it is not given here. [ ]: non-standard residue; d: D form. TGN = not defined here
property_measured: In vitro dddCt (vs. baseline SCE dose)
Number, no unit, nothing else.

Illustrative cases are given below, each with its answer.
TGN-S-S-Seq-ID-56 (L) (C(TGN)GLFHALLHLLHSLWHLLLHAWYGYGHKKHHQHR; reading uncertain; also: disulfide-linked to TGN peptide via Cys; listed as Homo sapiens) ... 0.05
TGN-S-S-SEQ ID NO: 1741 (L) (GLFGALAEALAEALAEHLAEALAEALEALAAGGSC(TGN); reading uncertain; also: TGN linked to Cys via disulfide, TGN not defined; listed as Homo sapiens) ... −0.11
TGN-S-S-Seq-ID-58 (D) (CRRQRRKKRGYGYWGDILGEWGNEIFGEIAEFLG; not fully specified; TGN disulfide conjugate; D-amino acids; listed as Homo sapiens) ... −0.03
TGN-S-S-SEQ ID NO: 1740 (L): TGN-S-S-peptide; peptide GLFEAIEGFIENGWEGLAELAEALEALAAGGSC (GLFEAIEGFIENGWEGLAELAEALEALAAGGSC(TGN); reading uncertain; also: TGN linked to Cys via disulfide, TGN not defined; listed as Homo sapiens) ... 0.13
TGN-S-S-Seq-ID-57 (L) (C(TGN)GLFGALLELLESLWKGLLEWYGRKKRRQRR; reading uncertain; also: disulfide-linked to TGN peptide via Cys; listed as Homo sapiens) ... 0
TGN-S-S-SEQ ID NO: 1746 (D): TGN-S-S-peptide; peptide CEALFGKINAIFIGKL ([dC][dE][dA][dL][dF]G[dK][dI][dN][dA][dI][dF][dI]G[dK][dL]; not fully specified (residue 1); also: disulfide to TGN peptide via Cys1; listed as Homo sapiens) ... −0.09
TGN-S-S-Seq-ID-37 (L) (C(TGN)IFGAIAGFIKNIWKGLIDWWYG; reading uncertain; also: disulfide-linked to TGN peptide via Cys; listed as Homo sapiens) ... 0.14

Now for the substance whose In vitro dddCt (vs. baseline SCE dose) we want.
Given the entry TGN-S-S-Seq-ID-55 (L) (C(TGN)GLFHALLHLLHSLWHLLLHAWYGYGRKKRRQRR; reading uncertain; also: disulfide-linked to TGN peptide via Cys; listed as Homo sapiens) , what In vitro dddCt (vs. baseline SCE dose) was observed with CTNNB1?
0.08
